Data credit: ChEMBL document CHEMBL4689842

Test system: HEK-293T
Test: Multiplex assay against HEK293T;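 note: share of the cells with healthy nuclei that show this phenotype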
Assay type: toxicity, cell-based
Conditions: human, 12 h, 1 µM, compound concentration 1 uM, replicate 1
metric.name: Population Tubulin-Different-Phenotype (%)
Return type: number; implicit unit %.

// Population Tubulin-Different-Phenotype (%) lookup, compound = CN(C)C/C=C/C(=O)Nc1cc2c(Nc3ccc(F)c(Cl)c3)ncnc2cc1O[C@H]1CCOC1.O=C(O)/C=C\C(=O)O.O=C(O)/C=C\C(=O)O [AFATINIB DIMALEATE] , result: 5

// Population Tubulin-Different-Phenotype (%) lookup, compound = "CCOc1cc(N2CCC(O)CC2)ccc1Nc1ncc2c(n1)N(C1CCCC1)CCC(=O)N2C" , result: 3

// Population Tubulin-Different-Phenotype (%) lookup, compound = "Cc1cc2c(cc1N1C(=O)c3cccc4c(CCCO)ccc(c34)C1=O)n(C)c(=O)n2C" , result: 47

// Population Tubulin-Different-Phenotype (%) lookup, compound = "COc1cc(N2CCC(N(C)C)CC2)ccc1Nc1ncc(Cl)c(Nc2ccccc2P(C)(C)=O)n1" , result: 7

// Population Tubulin-Different-Phenotype (%) lookup, compound = CCC(=O)O[C@]1(C(=O)SCF)[C@H](C)C[C@H]2[C@@H]3C[C@H](F)C4=CC(=O)C=C[C@]4(C)[C@@]3(F)[C@@H](O)C[C@@]21C [FLUTICASONE PROPIONATE] , result: 52

// Population Tubulin-Different-Phenotype (%) lookup, compound = O=C(O)c1ccc2cc(-c3ccc(O)c(C45CC6CC(CC(C6)C4)C5)c3)ccc2c1 [O-DEMETHYLATED ADAPALENE] , result: 30

// Population Tubulin-Different-Phenotype (%) lookup, compound = "CNc1oc(-c2cccc3ccccc23)nc1C#N" , result: 31

// Population Tubulin-Different-Phenotype (%) lookup, compound = "Cc1cn(-c2cc(NC(=O)c3ccc4c(c3)CN(c3cncnc3)C[C@@H]4C)cc(C(F)(F)F)c2)cn1" , result: 4

// Population Tubulin-Different-Phenotype (%) lookup, compound = CCc1cc2c(cc1CC)CC(NC[C@H](O)c1ccc(O)c3[nH]c(=O)ccc13)C2 [INDACATEROL] , result: 53

// Population Tubulin-Different-Phenotype (%) lookup, compound = CC(C)Oc1ccc(C(=O)N[C@H](CNC(=O)CN(C)C)Cc2ccc(-c3cn4cccc([C@H](C)O)c4n3)cc2)cc1Cl [GSK-923295A] , result: 15

// Population Tubulin-Different-Phenotype (%) lookup, compound = CC(C)(C)c1cnc(CSc2cnc(NC(=O)C3CCNCC3)s2)o1 [BMS-387032] , result: 4

// Population Tubulin-Different-Phenotype (%) lookup, compound = CC(=O)O[C@H]1C(=O)[C@@]2(C)[C@H]([C@H](OC(=O)c3ccccc3)[C@]3(O)C[C@H](OC(=O)[C@H](O)[C@@H](NC(=O)c4ccccc4)c4ccccc4)C(C)=C1C3(C)C)[C@]1(OC(C)=O)CO[C@@H]1C[C@@H]2O [PACLITAXEL] , result: 2

// Population Tubulin-Different-Phenotype (%) lookup, compound = "Cl.Cl.NC1(c2ccc(-c3nc4ccn5c(=O)[nH]nc5c4cc3-c3ccccc3)cc2)CCC1" , result: 15

// Population Tubulin-Different-Phenotype (%) lookup, compound = "COc1cc2c(NC3CCN(C(C)C)CC3)nc(N3CCC(F)(F)CC3)nc2cc1OCCCN1CCCC1" , result: 76

// Population Tubulin-Different-Phenotype (%) lookup, compound = "COc1cc2c(Nc3ccc(NC(=O)c4ccccc4)cc3)ncnc2cc1OCCCN1CCOCC1" , result: 81
